# tgt: UniProt P14416
# procedure.details: Displacement of [3H]-Raclopride from recombinant human dopamine D2 receptor expressed in HEK293T cell membranes co-expressing mGluR5a (unknown origin) after 1 hr by liquid scintillation counting
measured.property: pKi
Field pKi (float): negative decimal logarithm of the concentration in molar.

Look over these answered cases.
compound	tgt	measured.property	test.result
COc1cc(CN2CCN(c3ccccc3OC)CC2)ccc1OCc1cn(CCCCCCCCN(C)CCCCCNC(=O)COc2cccc(C#Cc3csc(C)n3)c2)nn1	UniProt P14416	pKi	7.03
COc1cc(CN2CCN(c3ccccc3OC)CC2)ccc1OCc1cn(CCCCCCCCCCN(C)CCCCCNC(=O)COc2cccc(C#Cc3csc(C)n3)c2)nn1	UniProt P14416	pKi	6.60
CCCN(CCc1ccc(NC(=O)CCc2cn(CCCCCCCCN(C)CCCCCNC(=O)COc3cncc(C#Cc4csc(C)n4)c3)nn2)cc1)C1CCc2c(O)cccc2C1 (centres undefined)	UniProt P14416	pKi	7.89

Okay, next one:
Incoming: // lookup pKi for `COc1cc(CN2CCN(c3ccccc3OC)CC2)ccc1OCc1cn(CCCCCCCCCCN(C)CCCCCNC(=O)COc2cncc(C#Cc3csc(C)n3)c2)nn1`
Outgoing: 6.94

* * *

# tgt: Metabotropic glutamate receptor 5 (Homo sapiens, UniProt P41594)
# Sequence (P41594 whole entry): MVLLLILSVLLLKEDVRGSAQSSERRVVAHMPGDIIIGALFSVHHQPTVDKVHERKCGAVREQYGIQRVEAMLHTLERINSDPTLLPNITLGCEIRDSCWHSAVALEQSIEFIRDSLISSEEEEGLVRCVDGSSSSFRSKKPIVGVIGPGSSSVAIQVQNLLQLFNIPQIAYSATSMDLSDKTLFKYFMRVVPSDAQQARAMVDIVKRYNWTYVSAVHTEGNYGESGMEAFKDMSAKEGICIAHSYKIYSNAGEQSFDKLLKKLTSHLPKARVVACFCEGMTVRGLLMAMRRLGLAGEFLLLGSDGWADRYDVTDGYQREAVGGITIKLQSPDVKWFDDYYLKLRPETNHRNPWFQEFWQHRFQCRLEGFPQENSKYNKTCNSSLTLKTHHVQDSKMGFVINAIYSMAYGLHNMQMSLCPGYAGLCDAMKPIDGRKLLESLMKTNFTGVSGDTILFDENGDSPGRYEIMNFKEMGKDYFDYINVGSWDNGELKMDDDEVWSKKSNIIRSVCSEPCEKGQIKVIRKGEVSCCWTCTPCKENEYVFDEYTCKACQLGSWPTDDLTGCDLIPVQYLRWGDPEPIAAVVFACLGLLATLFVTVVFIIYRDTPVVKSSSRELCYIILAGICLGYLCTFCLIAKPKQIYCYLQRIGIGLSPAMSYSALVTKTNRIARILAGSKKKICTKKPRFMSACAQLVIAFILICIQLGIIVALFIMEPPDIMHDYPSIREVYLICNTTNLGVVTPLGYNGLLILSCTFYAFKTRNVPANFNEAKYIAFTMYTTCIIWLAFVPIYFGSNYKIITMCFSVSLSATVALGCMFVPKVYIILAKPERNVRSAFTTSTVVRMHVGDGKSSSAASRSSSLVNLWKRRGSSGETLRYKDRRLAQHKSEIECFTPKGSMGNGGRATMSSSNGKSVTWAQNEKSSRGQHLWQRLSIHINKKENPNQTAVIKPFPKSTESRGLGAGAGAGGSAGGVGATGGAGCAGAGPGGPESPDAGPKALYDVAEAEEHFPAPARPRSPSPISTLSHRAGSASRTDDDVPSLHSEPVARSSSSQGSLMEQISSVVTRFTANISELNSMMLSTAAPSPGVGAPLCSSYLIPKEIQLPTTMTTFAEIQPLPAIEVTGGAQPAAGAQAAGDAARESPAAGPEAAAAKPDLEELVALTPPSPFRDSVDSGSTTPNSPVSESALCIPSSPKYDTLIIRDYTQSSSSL
# procedure.details: Antagonist activity at mGluR5 (unknown origin) expressed in HEK293T cells assessed as inhibition of L-Glu-induced MAPK phosphorylation preincubated for 30 mins followed by agonist stimulation for 10 mins by Western blot analysis
# Format: functional, cell-based
measured.property: pIC50
Field pIC50 (float): negative decimal logarithm of the concentration in molar.

Look over these answered cases.
compound	test.result
CCCN(CCc1ccc(NC(=O)CCc2cn(CCCCCCCCN(C)CCCCCNC(=O)COc3cncc(C#Cc4csc(C)n4)c3)nn2)cc1)C1CCc2c(O)cccc2C1 (stereo not drawn)	6.77
CCCN(CCc1ccc(NC(=O)CCc2cn(CCCCCCCCCCN(C)CCCCCNC(=O)COc3cncc(C#Cc4csc(C)n4)c3)nn2)cc1)C1CCc2c(O)cccc2C1 (stereo not drawn)	6.49

Okay, next one:
Incoming: Metabotropic glutamate receptor 5 (Homo sapiens, UniProt P41594) / pIC50 / `COc1cc(CN2CCN(c3ccccc3OC)CC2)ccc1OCc1cn(CCCCCCCCN(C)CCCCCNC(=O)COc2cncc(C#Cc3csc(C)n3)c2)nn1` : value?
Outgoing: 6.96

* * *

# tgt: D(2) dopamine receptor (Homo sapiens, UniProt P14416)
# Sequence (P14416 whole entry): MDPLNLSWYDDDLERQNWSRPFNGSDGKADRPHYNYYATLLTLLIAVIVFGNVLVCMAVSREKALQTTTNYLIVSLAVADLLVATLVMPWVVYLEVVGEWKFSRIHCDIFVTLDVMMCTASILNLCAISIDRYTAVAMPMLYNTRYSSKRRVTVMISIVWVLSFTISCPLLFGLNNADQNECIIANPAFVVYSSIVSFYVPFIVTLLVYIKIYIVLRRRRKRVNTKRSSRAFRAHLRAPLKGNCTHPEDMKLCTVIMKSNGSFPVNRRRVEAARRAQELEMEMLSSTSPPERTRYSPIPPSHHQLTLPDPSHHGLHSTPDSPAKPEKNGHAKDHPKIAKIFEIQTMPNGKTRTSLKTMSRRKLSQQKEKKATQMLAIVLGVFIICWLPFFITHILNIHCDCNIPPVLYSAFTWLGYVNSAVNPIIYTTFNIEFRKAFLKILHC
# procedure.details: Displacement of [3H]-Raclopride from recombinant human dopamine D2 receptor expressed in HEK293T cell membranes co-expressing mGluR5a (unknown origin) after 1 hr by liquid scintillation counting
measured.property: Ki (nM)
Answer in nM, number only, no unit symbol.

molecule	test.result
CCCN(CCc1ccc(NC(=O)CCc2cn(CCCCCCNC(=O)COc3cncc(C#Cc4csc(C)n4)c3)nn2)cc1)C1CCc2c(O)cccc2C1 (configuration not stated)	142
COc1cc(CN2CCN(c3ccccc3OC)CC2)ccc1OCc1cn(CCOCCOCCOCCOCCOCCNC(=O)COc2cccc(C#Cc3csc(C)n3)c2)nn1	186
COc1cc(CN2CCN(c3ccccc3OC)CC2)ccc1OCc1cn(CCOCCOCCOCCNC(=O)COc2cccc(C#Cc3csc(C)n3)c2)nn1	251

Incoming: D(2) dopamine receptor (Homo sapiens, UniProt P14416) / Ki / `C#CCOc1ccc(CN2CCN(c3ccccc3OC)CC2)cc1OC` : value?
Outgoing: 69

Incoming: Check CCCN(CCc1ccc(NC(=O)CCc2cn(CCCCCCCCCCN(C)CCCCCNC(=O)COc3cncc(C#Cc4csc(C)n4)c3)nn2)cc1)C1CCc2c(O)cccc2C1 (configuration not stated) too.
Outgoing: 171

Incoming: Check C#CCCC(=O)Nc1ccc(CCN(CCC)C2CCc3c(O)cccc3C2)cc1 (configuration not stated) too.
Outgoing: 19

Incoming: Check `COc1cc(CN2CCN(c3ccccc3OC)CC2)ccc1OCc1cn(CCCCCCCCN(C)CCCCCNC(=O)COc2cncc(C#Cc3csc(C)n3)c2)nn1` too.
Outgoing: 45

Where these numbers come from: ChEMBL document CHEMBL4229559
